Each record here notes measured glycan array binding signal (z-score).
- System: Neu5Ac(a2-3)Gal(b1-3)[Fuc(a1-4)]GlcNAc(b1-3)Gal(b1-3)[Fuc(a1-4)]GlcNAc
- Experiment: glycan array binding signal (z-score within array); higher = stronger binding
- Study Conditions: glycan notation: IUPAC condensed, linker removed
This is one part of a sample in which the strongest signals are shown more often than they occur.
Quantity Kind: glycan array binding signal (z-score)

>  <Binder>
Als3-2 (Candida albicans) (protein) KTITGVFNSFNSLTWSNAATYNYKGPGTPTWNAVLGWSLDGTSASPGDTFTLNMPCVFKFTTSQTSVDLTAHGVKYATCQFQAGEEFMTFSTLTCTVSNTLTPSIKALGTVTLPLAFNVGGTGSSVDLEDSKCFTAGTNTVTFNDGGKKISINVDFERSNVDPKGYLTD

>  <Quantity Kind>
glycan array binding signal (z-score)

>  <Reading>
-0.524

$$$$
>  <Binder>
GH98CBM51-1 (Streptococcus pneumoniae) (protein) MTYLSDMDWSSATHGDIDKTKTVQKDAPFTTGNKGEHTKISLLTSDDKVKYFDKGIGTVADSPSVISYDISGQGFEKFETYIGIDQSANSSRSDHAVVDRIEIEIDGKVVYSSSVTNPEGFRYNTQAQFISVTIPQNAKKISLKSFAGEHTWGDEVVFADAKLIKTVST

>  <Quantity Kind>
glycan array binding signal (z-score)

>  <Reading>
-0.184

$$$$
>  <Binder>
Na-CTL-1 (Necator americanus) (protein) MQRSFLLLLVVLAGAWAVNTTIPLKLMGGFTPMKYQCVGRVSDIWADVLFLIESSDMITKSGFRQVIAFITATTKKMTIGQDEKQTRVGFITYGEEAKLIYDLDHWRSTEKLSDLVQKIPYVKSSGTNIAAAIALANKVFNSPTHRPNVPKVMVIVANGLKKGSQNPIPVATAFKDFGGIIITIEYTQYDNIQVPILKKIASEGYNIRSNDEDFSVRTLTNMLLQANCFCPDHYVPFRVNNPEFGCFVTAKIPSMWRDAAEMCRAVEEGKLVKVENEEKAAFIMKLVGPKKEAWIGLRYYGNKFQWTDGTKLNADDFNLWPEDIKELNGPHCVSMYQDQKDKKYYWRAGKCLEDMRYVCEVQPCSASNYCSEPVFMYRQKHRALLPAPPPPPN

>  <Quantity Kind>
glycan array binding signal (z-score)

>  <Reading>
-0.347

$$$$
>  <Binder>
LecB PA14 (Pseudomonas aeruginosa) (protein) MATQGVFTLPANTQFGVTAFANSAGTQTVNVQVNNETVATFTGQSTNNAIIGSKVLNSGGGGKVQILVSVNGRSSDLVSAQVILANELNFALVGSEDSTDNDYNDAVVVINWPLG

>  <Quantity Kind>
glycan array binding signal (z-score)

>  <Reading>
3.3

$$$$
